- Tested on: 60 different human tumor cell lines
- Test settings: read-out: LC50; SK-MEL-5 (Melanoma), five dose
Readout type: CC50 (µM)
Kindly answer with a numeric value in µM, unit omitted.

Q. I am curious: what CC50 value has been reported for `C[C@]12CCc3nc(N)sc3C1=CC[C@@H]1[C@@H]2CC[C@]2(C)C(=NNC(N)=O)CC[C@@H]12` ?
A. 5.61

* * *

Answer each item with its documented SK-MEL-5 (% viability).
- Test system: SK-MEL-5
- Method summary: Melanoma cytotoxicity assay (resazurin)
- Assay type: cell-based
- Test settings: human, 24 h
Field: numeric (%). Do not append units.

Q. What does the record list as SK-MEL-5 (% viability) for CCCCNc1nc2c(s1)C1=CC[C@H]3[C@@H]4CC[C@H](O)[C@@]4(C)CC[C@@H]3[C@@]1(C)CC2 [IIIa.4] ?
A. 2.1

Q. SK-MEL-5 (% viability) for C[C@]12CC[C@H]3[C@@H](CC=C4c5sc(Nc6cccc(C(=O)O)c6)nc5CC[C@@]43C)[C@@H]1CC[C@@H]2O [IIIa.35] ?
A. 106.21

Q. Would you mind telling me what SK-MEL-5 (% viability) value was observed for Cc1ccc(Nc2nc3c(s2)C2=CC[C@H]4[C@@H]5CC[C@H](O)[C@@]5(C)CC[C@@H]4[C@@]2(C)CC3)cc1 [IIIa.33] ?
A. 1.21

Q. Find the recorded SK-MEL-5 (% viability) belonging to C[C@]12CC[C@H]3[C@@H](CC=C4c5sc(Nc6ccccc6)nc5CC[C@@]43C)[C@@H]1CC[C@@H]2O [IIIa.10] and report it.
A. 14.72

Q. What measured SK-MEL-5 (% viability) goes with C[C@]12CC[C@H]3[C@@H](CC=C4c5sc(Nc6ccccn6)nc5CC[C@@]43C)[C@@H]1CC[C@@H]2O [IIIa.24] ?
A. 2.25

Q. Consider the compound shown here: C[C@]12CC[C@H]3[C@@H](CC=C4c5sc(Nc6ccc(F)cc6F)nc5CC[C@@]43C)[C@@H]1CC[C@@H]2O [IIIa.13] What is its recorded SK-MEL-5 (% viability)?
A. 4.9

Q. State the recorded SK-MEL-5 (% viability) for this entry: C[C@]12CC[C@H]3[C@@H](CC=C4c5sc(Nc6ccc(F)cc6)nc5CC[C@@]43C)[C@@H]1CC[C@@H]2O [IIIa.12]
A. 3.66

Source listed as patent US20250296953A1.
